# assayed system: c-MYC (Homo sapiens)
# Construct: human recombinant c-MYC protein (Abcam ab169901)
# Sequence (P01106 16-454): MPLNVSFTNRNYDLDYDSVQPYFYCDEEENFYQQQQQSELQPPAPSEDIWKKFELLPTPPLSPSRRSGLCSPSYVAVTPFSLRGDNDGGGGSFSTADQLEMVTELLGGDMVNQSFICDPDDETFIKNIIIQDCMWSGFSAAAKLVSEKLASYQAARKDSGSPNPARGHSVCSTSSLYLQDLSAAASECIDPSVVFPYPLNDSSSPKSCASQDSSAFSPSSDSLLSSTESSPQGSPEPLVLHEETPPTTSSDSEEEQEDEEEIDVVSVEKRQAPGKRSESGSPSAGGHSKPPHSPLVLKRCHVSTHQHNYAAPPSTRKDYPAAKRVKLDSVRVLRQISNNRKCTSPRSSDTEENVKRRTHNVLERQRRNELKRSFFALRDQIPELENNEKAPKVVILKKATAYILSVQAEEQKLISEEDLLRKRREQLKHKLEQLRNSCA
# assay comment: microscale thermophoresis with RED-NHS labelled recombinant c-MYC
pKd: −log10 of the molar value.
recorded endpoint: pKd

{"smiles data": "Cc1ccc(NC(=O)N2Cc3[nH]cnc3C[C@H]2c2nc(-c3ccc4ccccc4c3)no2)cc1", "recorded endpoint": "pKd", "reported result": 5.97}
